# protocol notes: Plasma pharmacokinetics after oral gavage co-administration of DMT and DMT-d10 to male rats (Group 2)
# condition: male, Sprague Dawley, rat, plasma, po, 10 mg/kg
measured property: bioavailability (%)
Form entry: value (%) — number only.

{"columns": ["compound", "bioavailability / %"],
 "data": [
  ["[2H]C([2H])([2H])N(C([2H])([2H])[2H])C([2H])([2H])C([2H])([2H])c1c[nH]c2ccccc12", 1.16]
]}

// moving on: another record for bioavailability
stdin: Fill in: bioavailability of CN(C)CCc1c[nH]c2ccccc12 [DMT, N,N-dimethyltryptamine, reference compound] is ___
stdout: 1.36

Hello, the source for this data is patent US20250205198A1, in case you need it.
